- system: recombinant human adrenergic beta 1 receptors (Homo sapiens, UniProt P08588)
- Construct: purchased Euroscreen
- Sequence (P08588 whole entry): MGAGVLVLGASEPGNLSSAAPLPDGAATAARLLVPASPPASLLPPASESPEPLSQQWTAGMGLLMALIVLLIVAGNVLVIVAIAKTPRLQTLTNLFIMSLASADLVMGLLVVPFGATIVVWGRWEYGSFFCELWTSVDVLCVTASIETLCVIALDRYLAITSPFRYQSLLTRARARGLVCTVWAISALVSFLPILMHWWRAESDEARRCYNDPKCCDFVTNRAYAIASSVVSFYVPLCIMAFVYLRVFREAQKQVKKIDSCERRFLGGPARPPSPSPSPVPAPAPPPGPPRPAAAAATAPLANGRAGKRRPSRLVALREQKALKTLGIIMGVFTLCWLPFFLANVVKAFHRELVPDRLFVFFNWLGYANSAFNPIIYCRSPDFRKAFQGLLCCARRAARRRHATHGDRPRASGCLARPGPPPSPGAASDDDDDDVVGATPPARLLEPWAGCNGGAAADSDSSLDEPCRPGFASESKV
- method: Adrenergic β1 selectivity assay, inhibition of [125I]-Iodocyanopindolol binding
- details: membranes, [125I]-Iodocyanopindolol; read-out: β1 bind pIC50 (converted)
Where a name gives a salt, the structure may show the parent alone.
The threshold is 0.04 µM. Values of IC50 beneath it are tagged satisfied; values meeting or exceeding it are tagged not satisfied.

> print(dat)
                                   compound    label.value
1  N[C@@H](COCCCSCCNC[C@H](O)c1ccc(O)c2[nH]c(=O)sc12)c1ccccc1  not satisfied
2  Cl.O=c1[nH]c2c(O)ccc([C@@H](O)CNCCSCCOCCc3cccc4ccccc34)c2s1 [Example 4, hydrochloride]  not satisfied
3  CCc1ccc(CCNCCCSCCNC[C@H](O)c2ccc(O)c3[nH]c(=O)sc23)cc1  not satisfied
4  C[C@@H](CNCCSCCCNC[C@H](O)c1ccc(O)c2[nH]c(=O)sc12)c1ccccc1  not satisfied
5  O=c1[nH]c2c(O)ccc([C@@H](O)CNCCOCCCNCCc3cccc(Cl)c3)c2s1  not satisfied
6  O=c1[nH]c2c(O)ccc([C@@H](O)CNCCCS(=O)(=O)CCOCCc3cccc4ccccc34)c2s1 [Example 2, trifluoroacetate]      satisfied
7  Cl.O=c1[nH]c2c(O)ccc([C@@H](O)CNCCCSCCCOCCc3ccccc3)c2s1 [Example 6, hydrochloride]      satisfied
